# System: E. coli BL21
# experiment.notes: MIC against Gram-negative bacteria: E. coli BL21
# Assay type: cell-based
# condition: E. coli BL21; 96-well plate, 5×10^5 CFU/mL, 37° C., 10 h
Exercise: for every item that follows, state its recorded MIC against E. coli BL21.
Answer format: numeric, µg/mL implied, no suffix.

Ask: Answer with the recorded MIC against E. coli BL21 of PRT1335 (MTDICKSDNPCHRNANCTTVAPGRTECICQKGYVGDGLTCY; listed as Homo sapiens) only.
Reply: 12.5

Ask: Provide only the value of recorded MIC against E. coli BL21 for PRT1339 (EINNCLLPSAGGCHDNASCLYVGPGQNECECKKGFRGNGIDCE; listed as Homo sapiens)
Reply: 12.5

Ask: Note down MIC against E. coli BL21 recorded for PRT1316 (ELPVCQELRCPQNTQCSAEAPSCRCLPGYTQQGSE; listed as Homo sapiens)
Reply: 12.5

Ask: Could you please provide reported MIC against E. coli BL21 for PRT1211 (LSPYCKDEPCKNGGTCFDSLDGAVCQCDSGFRGERCQ; listed as Homo sapiens) ? Thanks!
Reply: 25

---

# Test system: E. coli DH5α
# experiment.notes: Antibacterial activity: MIC and growth curve against E. coli DH5α in 96-well plate
# Assay type: cell-based
# condition: minimal inhibitory concentration against E. coli DH5α; 96-well plate, 5×10^5 CFU/mL, 37° C., judged after 8 h
# Method: 1. E. coli DH5α was exemplified. E. coli DH5α was streaked and cultured on LB solid medium. […] 4. […] Samples were taken every 30 min, the absorbance values were determined at 600 nm wavelength under a ultra violet spectrophotometer, and an inhibition curve was plotted. […] According to the experimental procedures in Example 14, the minimal inhibitory concentrations (MIC, μg/mL) of the other human-originated EGF domain proteins (PRT2 to PRT1498 in Table 1) for E. coli DH5α were determined.
reported.metric: MIC (µg/mL)
Quick note: give the figure in µg/mL, leave out the unit.

Ask: In one line, give reported MIC of the entry PRT1130 (DDCSSHCDLAHGCCAPDGSCRCDPGWEGLHCE; listed as Homo sapiens) .
Reply: 12.5

Ask: Name the recorded MIC of the substance listed here: PRT35 (AMDLCARRLLDPCEHQCDPETGRREHRAAGECLCYEGYMKDPVHKHLCI; listed as Homo sapiens)
Reply: 12.5

Ask: Fill in MIC for record PRT456 (DIDECADSEACGEARCKNLPGSYSCLCDEGFAYSSQEKACR; listed as Homo sapiens)
Reply: 25

Ask: Using the record for PRT68 (RSGRCANGVCKNGGTCVNLLIGGFHCVCPPGEYERPYCE; listed as Homo sapiens) , state its measured MIC.
Reply: 12.5

Ask: Give reported MIC value for PRT26 (CDSGPCKNSGFCSERWGSFSCDCPVGFGGKDCQ; listed as Homo sapiens)
Reply: 25

Ask: Return value of MIC for input PRT1200 (DIDECSEGIIECHNHSRCVNLPGWYHCECRSGFHDDGTY; listed as Homo sapiens) , no commentary.
Reply: 12.5

Ask: Please give measured MIC of the following entry: PRT185 (ELSECDSNPCRNGGSCKDQEDGYHCLCPPGYYGLHCE; listed as Homo sapiens)
Reply: 50

Ask: Tell me measured MIC for PRT645 (EINECTVNPDICGAGHCINLPVRYTCICYEGYRFSEQQ; listed as Homo sapiens) please.
Reply: 50

Ask: Provide measured MIC value, entry: PRT169 (CIRYPGCLHGTCQQPWQCNCQEGWGGLFC; listed as Homo sapiens)
Reply: 50

Ask: Dear colleague, please send me the reported MIC for PRT741 (SAHPCARDNGGCSHICIAKGDGTPRCSCPVHLVLLQNLLTCG; listed as Homo sapiens) when you can.
Reply: 12.5

Ask: # return recorded MIC for input PRT602 (CKCHPQGSVGSSCSRLGGQCQCKPLVVGRCCDRCSTGSYDLGHHGCHP; listed as Homo sapiens)
Reply: 50

Ask: Indicate its recorded MIC; the substance in question is PRT234 (DINECATLSKVSCGKFSDCWNTEGSYDCVCSPGYEPVSGAKTFKNESENTCQ; listed as Homo sapiens)
Reply: 25

Ask: Input PRT502 (CECHGHAAECNVHGVCIACAHNTTGVHCEQCLPGFYGEPSRGTPGDCQP; listed as Homo sapiens) , output reported MIC.
Reply: 25

Ask: Return reported MIC. Input substance: PRT1243 (FGESCEQQCPHCRHGEACEPDTGHCQRCDPGWLGPRCE; listed as Homo sapiens)
Reply: 12.5

Ask: Read the entry PRT1458 (CNCHLSGALNETCHLVTGQCFCKQFVTGSKCDACVPSASHLDVNNLLGCSK; listed as Homo sapiens) and write its reported MIC.
Reply: 12.5

Ask: Could you please provide reported MIC for PRT934 (DKNECLSNPCQNGGTCDNLVNGYRCTCKKGFKGYNCQ; listed as Homo sapiens) ? Thanks!
Reply: 12.5

---

# Tested on: Moraxella catarrhalis
# experiment.notes: MIC against Gram-negative bacteria: Moraxella catarrhalis
# Format: cell-based
# condition: M. catarrhalis; 10 h cultivation at 37° C.; 5×10^5 CFU/mL
reported.metric: MIC
Write the numeric value and follow it with the unit.

Ask: Provide the reported MIC (system: Moraxella catarrhalis) for PRT318 (DVDECEKNPCAGGECINNQGSYTCQCRAGYQSTLTRTECR; listed as Homo sapiens)
Reply: 50 µg/mL

Ask: Consider the substance PRT439 (DINECQESSPCHQRCFNAIGSFHCGCEPGYQLKGRKCM; listed as Homo sapiens) tested on Moraxella catarrhalis; state its MIC.
Reply: 50 µg/mL

Ask: Provide MIC, system Moraxella catarrhalis, entry PRT414 (DIDECESGIHNCLPDFICQNTLGSFRCRPKLQCKSGFIQDALGNCI; listed as Homo sapiens)
Reply: 25 µg/mL

Ask: Under Moraxella catarrhalis, report MIC for PRT429 (DVNECEAQRCSQECANIYGSYQCYCRQGYQLAEDGHTCT; listed as Homo sapiens)
Reply: 12.5 µg/mL

Ask: State measured MIC of the substance PRT435 (DMDECSFSEFLCQHECVNQPGTYFCSCPPGYILLDDNRSCQ; listed as Homo sapiens) with Moraxella catarrhalis.
Reply: 25 µg/mL

Ask: Give MIC for this entry on Moraxella catarrhalis: PRT369 (DVDECLSSPCVSGVCRNLAGSYTCKCGPGSRLDPSGTFCL; listed as Homo sapiens)
Reply: 50 µg/mL

Ask: Please report the measured MIC for PRT428 (DVNECWASPGRLCQHTCENTLGSYRCSCASGFLLAADGKRCE; listed as Homo sapiens) tested on Moraxella catarrhalis.
Reply: 50 µg/mL

Ask: Print Moraxella catarrhalis MIC for PRT413 (DVNECITGSHSCRLGESCINTVGSFRCQRDSSCGTGYELTEDNSCK; listed as Homo sapiens) .
Reply: 50 µg/mL

---

# Tested on: Proteus mirabilis
# experiment.notes: MIC against Gram-negative bacteria: Proteus mirabilis
# Format: cell-based
# condition: P. mirabilis; 10 h cultivation at 37° C.
reported.metric: MIC (µg/mL)
Field format: number, assumed µg/mL, no unit text.

Ask: Provide Proteus mirabilis MIC reading for PRT981 (DINECRSGACHAAHTRDCLQDPGGGFRCLCHAGFSGPRCQ; listed as Homo sapiens) .
Reply: 12.5

Ask: Find the measured MIC of PRT982 (VLSPCESQPCQHGGQCRPSPGPGGGLTFTCHCAQPFWGPRCE; listed as Homo sapiens) with Proteus mirabilis as test system.
Reply: 50

Ask: Quote Proteus mirabilis MIC for entry PRT996 (DIDECRSSPCANGGQCQDQPGAFHCKCLPGFEGPRCQ; listed as Homo sapiens) .
Reply: 12.5

Ask: Name the recorded MIC of PRT927 (DIDDCSSTPCLNGAKCIDHPNGYECQCATGFTGVLCE; listed as Homo sapiens) , assay system Proteus mirabilis.
Reply: 25

Ask: Recall the reported MIC of PRT1002 (FPDPCQNAQLCQNGGSCQALLPAPLGLPSSPSPLTPSFLCTCLPGFTGERCQ; listed as Homo sapiens) on Proteus mirabilis and write it down.
Reply: 25

Ask: Look up Proteus mirabilis data: MIC of PRT909 (LVDECSPSPCQNGATCTDYLGGYSCKCVAGYHGVNCS; listed as Homo sapiens) , then report it.
Reply: 12.5

Ask: Determine reported MIC for PRT902 (DIDDCRPNPCHNGGSCTDGINTAFCDCLPGFRGTFCE; listed as Homo sapiens) ; test system: Proteus mirabilis.
Reply: 12.5

Ask: Given PRT1041 (VPLCAQECVHGRCVAPNQCQCVPGWRGDDCS; listed as Homo sapiens) , report its MIC on Proteus mirabilis.
Reply: 25

Ask: Quote Proteus mirabilis MIC for entry PRT975 (LVDWCSRQPCQNGGRCVQTGAYCLCPPGWSGRLCD; listed as Homo sapiens) .
Reply: 50

Ask: Output reported MIC of the substance PRT1009 (DVDECLDQPCHPTGTAACHSLANAFYCQCLPGHTGQWCE; listed as Homo sapiens) on Proteus mirabilis.
Reply: 50

Ask: Check Proteus mirabilis data and give MIC for PRT925 (DINECHSDPCQNDATCLDKIGGFTCLCMPGFKGVHCE; listed as Homo sapiens) .
Reply: 25

Ask: // fetch MIC; item: PRT955 (DVDECLLQPNACQNGGTCANRNGGYGCVCVNGWSGDDCS; listed as Homo sapiens) ; system: Proteus mirabilis
Reply: 12.5

Ask: Report its MIC with Proteus mirabilis as the test system: PRT907 (PSVSCEVAAQRQGVDVARLCQHGGLCVDAGNTHHCRCQAGYTGSYCE; listed as Homo sapiens)
Reply: 25

Ask: Under Proteus mirabilis, report MIC for PRT935 (NIDECASNPCLNQGTCFDDISGYTCHCVLPYTGKNCQ; listed as Homo sapiens)
Reply: 12.5

Ask: Provide MIC, recorded with Proteus mirabilis, of PRT916 (QADPCASNPCANGGQCLPFEASYICHCPPSFHGPTCR; listed as Homo sapiens)
Reply: 25

Ask: Look up and report MIC, with Proteus mirabilis as system, for PRT979 (LPDPCLSSPCAHGARCSVGPDGRFLCSCPPGYQGRSCR; listed as Homo sapiens)
Reply: 12.5
